mortality (number of dead animals/number of treated animals) for assorted molecules
# Test system: mice
# testDetails: Acute Toxicity in mice, oral single dose
# Format: in vivo, mouse (male)
# conditionDescription: male mice, 300 mg/kg, p.o., 7 days observation
measureName: mortality (number of dead animals/number of treated animals)

{"columns": ["molecule", "measured"],
 "data": [
  ["CC1=C(Nc2ccc(C3=NNC(=O)CC3)cc2)CCC1=O", "1/3"],
  ["O=C1CCC(c2ccc(-n3ccnc3)cc2)=NN1 [CI-914, reference compound]", "2/3"],
  ["Cc1[nH]c(=O)c(C#N)cc1-c1ccncc1 [Milrinone, milrinone, reference compound]", "3/3"],
  ["O=C1C=C(Nc2ccc(C3=NNC(=O)CC3)cc2)CC1", "0/3"],
  ["O=C1C=C(Nc2ccc(C3=NNC(=O)CC3)cc2)CCC1", "0/3"],
  ["CC1(C)CC(=O)C=C(Nc2ccc(C3=NNC(=O)CC3)cc2)C1", "0/3"]
]}

----------
# studySystem: PDE-III (Cavia porcellus, UniProt H0VIU9)
# Construct: different forms of cyclic nucleotide phosphodiesterase from guinea pig left ventricular muscles; from tissue; host or cells: guinea pig left ventricular muscle, DEAE-cellulose fraction
# Sequence (H0VIU9 1-1132): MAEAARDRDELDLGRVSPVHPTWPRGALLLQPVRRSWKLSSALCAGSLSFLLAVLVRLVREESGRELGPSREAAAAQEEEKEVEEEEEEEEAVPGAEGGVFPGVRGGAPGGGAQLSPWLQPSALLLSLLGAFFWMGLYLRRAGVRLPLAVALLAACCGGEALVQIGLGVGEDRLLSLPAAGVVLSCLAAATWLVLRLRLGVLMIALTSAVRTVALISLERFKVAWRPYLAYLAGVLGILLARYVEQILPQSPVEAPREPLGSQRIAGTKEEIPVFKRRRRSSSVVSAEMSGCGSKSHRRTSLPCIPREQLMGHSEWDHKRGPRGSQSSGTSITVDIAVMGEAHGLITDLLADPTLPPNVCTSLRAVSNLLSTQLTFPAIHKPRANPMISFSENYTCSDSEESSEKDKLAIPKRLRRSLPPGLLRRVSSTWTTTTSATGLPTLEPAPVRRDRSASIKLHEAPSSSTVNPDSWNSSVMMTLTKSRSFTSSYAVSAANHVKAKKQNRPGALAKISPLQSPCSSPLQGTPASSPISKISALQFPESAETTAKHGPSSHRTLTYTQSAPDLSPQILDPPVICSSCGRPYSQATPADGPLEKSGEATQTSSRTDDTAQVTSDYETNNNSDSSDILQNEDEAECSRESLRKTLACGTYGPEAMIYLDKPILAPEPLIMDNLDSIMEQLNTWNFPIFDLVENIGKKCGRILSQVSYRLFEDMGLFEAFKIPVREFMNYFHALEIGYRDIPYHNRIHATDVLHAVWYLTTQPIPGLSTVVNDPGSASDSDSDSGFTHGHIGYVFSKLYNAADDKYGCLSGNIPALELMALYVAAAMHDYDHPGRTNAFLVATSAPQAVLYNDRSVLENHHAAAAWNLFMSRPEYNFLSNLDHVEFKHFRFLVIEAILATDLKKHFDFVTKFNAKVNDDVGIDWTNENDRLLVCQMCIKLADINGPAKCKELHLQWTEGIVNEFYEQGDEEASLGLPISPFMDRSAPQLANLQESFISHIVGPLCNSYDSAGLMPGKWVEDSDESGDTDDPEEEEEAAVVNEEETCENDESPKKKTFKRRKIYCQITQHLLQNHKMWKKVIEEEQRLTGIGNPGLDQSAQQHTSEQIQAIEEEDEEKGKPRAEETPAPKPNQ
# testDetails: Inhibition of Phosphodiesterase PDE-III
# Format: biochemical, guinea pig (left ventricular muscles)
pIC50: −log10 of the molar value.

{"columns": ["molecule", "pIC50"],
 "data": [
  ["Cc1[nH]c(=O)c(C#N)cc1-c1ccncc1 [Milrinone, milrinone, reference compound]", 5.55]
]}

----------
# studySystem: PDE-I
# testDetails: Inhibition of Phosphodiesterase PDE-I
# Type: biochemical, guinea pig (left ventricular muscles)
# conditionDescription: 1 mM 3H-cAMP substrate
# Source text: The preparation of different forms of cyclic nucleotide phosphodiesterase from guinea pig left ventricular muscles was done by following the procedure of Weishaar, et al. (R. Weishaar, et al., Biochemical Pharmacology, 35, 787-800, 1986) with the minor modified method of Thompson, et al. (W. J. Thompson, et al., Advances in Cyclic Nucleotide Research, 10, 69-92, 1979). […]
IC50 for assorted molecules
measureName: IC50

{"columns": ["molecule", "measured"],
 "data": [
  ["CC1=C(Nc2ccc(C3=NNC(=O)CC3C)cc2)CCC1=O (centres unmarked)", "> 1000 µM"],
  ["O=C1C=C(Nc2ccc3c(c2)OCC2CC(=O)NN=C32)CC1 (centres unmarked)", "> 100 µM"],
  ["O=C1CCC(c2ccc(-n3ccnc3)cc2)=NN1 [CI-914, reference compound]", "> 1000 µM"],
  ["CC1=C(Nc2ccc3c(c2)OCC2CC(=O)NN=C32)CCC1=O (centres unmarked)", "> 1000 µM"],
  ["O=C1C=C(Nc2ccc3c(c2)CCC2CC(=O)NN=C32)CC1 (centres unmarked)", "> 100 µM"]
]}
